All figures here come from patent US9469650B2.

Listed here: molecules with reported CC50 for BT-549.
reportedProperty: CC50

C=C1C(=O)O[C@H]2[C@H]1CC/C(COC(=O)NCCO)=C\CC[C@@]1(C)O[C@@H]21 | 42.9 µM
C=C1C(=O)O[C@H]2[C@H]1CC/C(COC(=O)NC)=C\CC[C@@]1(C)O[C@@H]21 | 33.1 µM
C=C1C(=O)O[C@H]2[C@H]1CC/C(COC(=O)CCC(=O)N1CCC(C)CC1)=C\CC[C@@]1(C)O[C@@H]21 | 29.3 µM
C=C1C(=O)O[C@H]2[C@H]1CC/C(COC(=O)NCCN1CCCCC1)=C\CC[C@@]1(C)O[C@@H]21 | 44.3 µM
C=C1C(=O)O[C@H]2[C@H]1CC/C(COC(=O)N1CCN(C)CC1)=C\CC[C@@]1(C)O[C@@H]21 | 49 µM
C=C1C(=O)O[C@H]2[C@H]1CC/C(COC(=O)N1CCC(F)(F)CC1)=C\CC[C@@]1(C)O[C@@H]21 | 29.5 µM
